# key: entry, value: IC50
Target: cloned human NR1/NR2B ion channels (Homo sapiens (Human), UniProt Q05586+Q13224)
Sequence (Q13224 27-1484, other chains not shown): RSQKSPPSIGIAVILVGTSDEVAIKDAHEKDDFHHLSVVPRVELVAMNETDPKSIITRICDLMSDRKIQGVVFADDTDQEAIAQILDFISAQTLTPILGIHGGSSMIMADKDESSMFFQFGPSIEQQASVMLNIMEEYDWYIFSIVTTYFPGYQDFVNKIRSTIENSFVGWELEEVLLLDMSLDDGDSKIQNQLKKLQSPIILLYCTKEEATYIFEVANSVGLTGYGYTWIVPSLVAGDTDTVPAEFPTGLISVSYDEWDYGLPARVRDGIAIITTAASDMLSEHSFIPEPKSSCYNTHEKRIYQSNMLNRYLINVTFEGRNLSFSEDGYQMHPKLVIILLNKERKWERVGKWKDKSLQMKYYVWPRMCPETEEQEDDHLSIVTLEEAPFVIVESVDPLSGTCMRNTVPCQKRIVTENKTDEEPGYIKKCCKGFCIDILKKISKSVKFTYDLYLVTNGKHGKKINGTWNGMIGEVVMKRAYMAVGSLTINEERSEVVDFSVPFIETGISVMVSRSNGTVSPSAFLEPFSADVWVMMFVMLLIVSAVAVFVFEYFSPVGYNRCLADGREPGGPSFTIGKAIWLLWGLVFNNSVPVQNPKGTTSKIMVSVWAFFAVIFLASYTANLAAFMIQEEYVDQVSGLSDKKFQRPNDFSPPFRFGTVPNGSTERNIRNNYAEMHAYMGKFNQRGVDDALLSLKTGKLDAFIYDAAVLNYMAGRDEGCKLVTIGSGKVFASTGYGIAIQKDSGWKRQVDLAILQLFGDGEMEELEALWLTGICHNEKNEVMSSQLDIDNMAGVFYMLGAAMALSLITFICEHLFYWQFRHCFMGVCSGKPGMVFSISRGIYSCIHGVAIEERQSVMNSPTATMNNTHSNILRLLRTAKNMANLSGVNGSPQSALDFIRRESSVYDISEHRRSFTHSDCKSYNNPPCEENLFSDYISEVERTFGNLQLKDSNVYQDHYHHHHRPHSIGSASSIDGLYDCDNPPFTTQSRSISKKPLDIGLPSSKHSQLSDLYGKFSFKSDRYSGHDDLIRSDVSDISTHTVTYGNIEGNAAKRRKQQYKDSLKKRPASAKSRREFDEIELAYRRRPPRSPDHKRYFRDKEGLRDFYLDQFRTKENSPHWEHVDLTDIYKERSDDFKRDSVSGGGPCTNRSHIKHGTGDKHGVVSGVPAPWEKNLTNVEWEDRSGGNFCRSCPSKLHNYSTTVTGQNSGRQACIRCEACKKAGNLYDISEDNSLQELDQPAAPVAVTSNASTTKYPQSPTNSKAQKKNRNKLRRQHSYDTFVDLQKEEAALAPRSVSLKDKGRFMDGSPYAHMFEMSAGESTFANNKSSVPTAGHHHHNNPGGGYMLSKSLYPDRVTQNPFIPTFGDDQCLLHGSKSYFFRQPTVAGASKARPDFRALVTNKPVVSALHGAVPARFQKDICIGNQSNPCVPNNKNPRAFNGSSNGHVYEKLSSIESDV
Assay: HNR2BC: effects of test articles on cloned human NR1/NR2B ion channels expressed in mammalian cells (FLIPR calcium flux)
Format: cell-based
Settings: cloned human NR1/NR2B, Table 5
Counter-ions that a name gives are not always drawn.
Numbers only here, please. The scale is nM.

{"columns": ["COMPOUND", "TESTED ON", "OBSERVED VALUE"],
 "data": [
  ["Cc1cc(-c2cnc3ccn(CC(=O)N4CCC(C)(O)CC4)c3c2)ccc1F [Example 209, trifluoroacetate salt]", "cloned human NR1/NR2B ion channels (Homo sapiens (Human), UniProt Q05586+Q13224)", 200],
  ["Cc1csc(-c2cnc3c(Cl)cn(CC(=O)N(C)C)c3c2)c1", "cloned human NR1/NR2B ion channels (Homo sapiens (Human), UniProt Q05586+Q13224)", 50.1],
  ["O=C(Cn1ccc2ncc(-c3cccc(C(F)(F)F)c3F)cc21)NC1CC1 [Example 352, trifluoroacetate salt]", "cloned human NR1/NR2B ion channels (Homo sapiens (Human), UniProt Q05586+Q13224)", 39.8],
  ["Cc1cc(-c2cnc3ccn(CC(=O)NC4CCC4)c3c2)ccc1F [Example 66, trifluoroacetate salt]", "cloned human NR1/NR2B ion channels (Homo sapiens (Human), UniProt Q05586+Q13224)", 200]
]}

Ask: Lab note: record IC50 of `Cc1cc(-c2cnc3c(Cl)cn(CC(=O)N4CC(F)(F)C4)c3c2)ccc1F` tested on cloned human NR1/NR2B ion channels (Homo sapiens (Human), UniProt Q05586+Q13224).
Reply: 79.4
